Measurement notes: NCI Yeast Anticancer Drug Screen. Data for the mlh1 rad18 strain (AID 175)
Condition notes: S. cerevisiae mlh1 rad18 strain growth inhibition; at 50.0 µM; hits give high values
About 79,000 compounds went through this panel and 15% of them were active in at least one assay; those are over-represented in the sample as a whole.
Please go through the items and note down their growth inhibition.
The figure you give is taken to be in %; do not add the unit.

Provide only the value of recorded growth inhibition for `C=CCC1(C)C=C(C)C(=O)C(C)=C1`
15.1

Provide only the value of recorded growth inhibition for CSCCC(NC(=O)c1ccccc1)C(=O)O (configuration not stated)
-10.6

Provide only the value of recorded growth inhibition for COC(=O)C1=NNC(c2ccc(C)cc2)C1 (configuration not stated)
2.85

Provide only the value of recorded growth inhibition for `O=C1NC(=S)N/C1=C\c1ccco1`
32

Provide only the value of recorded growth inhibition for C/C(=C/C(C)C)C(C)(C#N)C(N)=O (configuration not stated)
4.35

Provide only the value of recorded growth inhibition for `CN(C)CCNC(=O)c1cc([N+](=O)[O-])cn1C`
-68.2

Provide only the value of recorded growth inhibition for `CCCCCCCCCc1ccc(COCC)cc1`
9.55

Provide only the value of recorded growth inhibition for `C=COC(=O)N1CCCCC1`
27.4

Provide only the value of recorded growth inhibition for COc1ccc(C(c2cc3c(cc2O)OCO3)N2CCCC2)cc1 (configuration not stated)
21.2

Provide only the value of recorded growth inhibition for COC(=O)CC1(O)C=CCCC1c1ccccc1 (configuration not stated)
-35

Provide only the value of recorded growth inhibition for `COC(=O)CCC1=C(C)C2=NC1=CC1=NC(=CC3=NC(=Cc4[nH]c(/c(=C\O)c4C)=C2)C(C=O)=C3C)C(C)=C1CCC(=O)OC`
11.6

Provide only the value of recorded growth inhibition for `Cc1ccc(S(=O)(=O)N2CCSCCN(S(=O)(=O)c3ccc(C)cc3)CCN(S(=O)(=O)c3ccc(C)cc3)CC2)cc1`
-18.4

---

Measurement notes: NCI Yeast Anticancer Drug Screen. Data for the mlh1 rad18 strain (AID 175)
Condition notes: S. cerevisiae mlh1 rad18 strain growth inhibition; at 50.0 µM; hits give high values
The panel holds about 79,000 compounds, 15% with a hit somewhere; the sample as a whole holds those more often.
Outcome: true (1) for growth inhibition of at least 20%; false (0) for anything lower.

Can C=C1C(=O)O[C@H]2C[C@@H]1C(=O)CC(C)CCCC(C)=CCC[C@@]2(C)O (stereo partly specified) be said to have growth inhibition at or above 20%?
false (0)

Can `Nc1nc(=O)n(CCCOc2cccc(Cl)c2)cc1-c1ccc(Cl)c(Cl)c1` be said to have growth inhibition at or above 20%?
true (1)

Can `Oc1cc(O)c2c(-c3c(O)c(-c4ccc(O)c(O)c4)[o+]c4cc(O)cc(O)c34)c(O)c(-c3ccc(O)c(O)c3)[o+]c2c1` be said to have growth inhibition at or above 20%?
true (1)

Can `N#Cc1cc2ccccc2c2ccccc12` be said to have growth inhibition at or above 20%?
false (0)

Can `CC1(C)NC(=S)N(O)C1(C)C` be said to have growth inhibition at or above 20%?
false (0)

Can `CCOC(=O)C(=O)Nc1ccccc1` be said to have growth inhibition at or above 20%?
false (0)

Can `O=S(=O)(c1ccc(N=Cc2cccs2)cc1)c1ccc(N=Cc2cccs2)cc1` be said to have growth inhibition at or above 20%?
false (0)

Can `CC(=S)NC=C(C(N)=O)C(N)=O` be said to have growth inhibition at or above 20%?
false (0)

Can `CCOC(=O)N1N(C(=O)c2ccccc2)C(=O)CC1(C)C` be said to have growth inhibition at or above 20%?
false (0)

Can O=C(NC1C(=O)NNC1c1cccc([N+](=O)[O-])c1)c1ccccc1 (stereo unspecified) be said to have growth inhibition at or above 20%?
false (0)

Can `O=C1C=CC2(C=C1)OCC(=O)O2` be said to have growth inhibition at or above 20%?
false (0)

---

Measurement notes: NCI Yeast Anticancer Drug Screen. Data for the bub3 strain (AID 167)
Condition notes: S. cerevisiae bub3 mutant strain, at 50.0 µM, hits give high values
The panel holds about 79,000 compounds, 15% with a hit somewhere; the sample as a whole holds those more often.
Observed property: growth inhibition (%)
The figure you give is taken to be in %; do not add the unit.

Provide only the value of recorded growth inhibition for `COC(=O)c1cc(NS(=O)(=O)c2ccc(N)cc2)cc(C(=O)OC)c1`
-14.8

Provide only the value of recorded growth inhibition for `COc1ccc(C2=CN(S(=O)(=O)c3ccc(C)cc3)CCc3ccccc32)cc1`
-6.6

Provide only the value of recorded growth inhibition for CC(C)CCC(C)c1ccncc1 (stereo unspecified)
3.35

Provide only the value of recorded growth inhibition for Cn1cc(C2(C)CC(C)(C)c3c2n(C)c2ccccc32)c2ccccc21 (stereo unspecified)
-17.9

Provide only the value of recorded growth inhibition for `COc1ccccc1-n1c(NN)nc2ccc(Br)cc2c1=O`
27.2

Provide only the value of recorded growth inhibition for `CCCC=NCCCC`
-30

Provide only the value of recorded growth inhibition for `O=C(O)/C=C/C(=O)N1Cc2cc3ccccc3nc2C1`
-56.2

Provide only the value of recorded growth inhibition for `Cc1cc(S(=O)(=O)Nc2nc(N)nc(N3CCOCC3)n2)c(SCC(=O)O)cc1Cl`
6.25

Provide only the value of recorded growth inhibition for `c1ccc(CC2(Cc3ccccc3)SCCS2)cc1`
-0.6

Provide only the value of recorded growth inhibition for `COc1ccc2[nH]c(C)cc2c1CN`
-20.2

Provide only the value of recorded growth inhibition for CS(=O)(=O)CC(O)c1ccccc1 (stereo unspecified)
6.65

Provide only the value of recorded growth inhibition for `CC(=O)NCCCCCC(=O)O`
-2.65

Provide only the value of recorded growth inhibition for `N#CCC(=O)c1ccccc1C(=O)O`
-6.2

Provide only the value of recorded growth inhibition for `COc1ccc(COC(=O)Oc2ccc(Cl)cc2)cc1OC`
90.5

Provide only the value of recorded growth inhibition for CCCNc1ccc2c(c1)C(O)c1ccccc1-2 (stereo unspecified)
-4

Provide only the value of recorded growth inhibition for `Cc1cccc(NC(=O)c2c(Br)c(Br)c(Br)c(Br)c2C(=O)O)c1C`
5.4

Provide only the value of recorded growth inhibition for `C/C(CC1SCCCS1)=C(/C)CC1SCCCS1`
2.25

Provide only the value of recorded growth inhibition for `Clc1ccc(C(n2cc(Br)cn2)n2cc(Br)cn2)cc1`
91

Provide only the value of recorded growth inhibition for `Cc1ccc([N+](=O)[O-])cc1NC(=O)NCCO`
1

Provide only the value of recorded growth inhibition for `CCCCCCCC/C=C/CCCCCCCCCCCC(=O)O`
-8.9

Provide only the value of recorded growth inhibition for ClC1CC2CCC1C2Br (stereo unspecified) (tested in a mixture with another compound)
-0.45

Provide only the value of recorded growth inhibition for `CN(C)COC(=S)SCC(=O)O`
-3.05

Provide only the value of recorded growth inhibition for CCCCCCCCCCCCOP(=O)(O)OP(=O)(O)OCC1OC(n2ccc(N)nc2=O)CC1O (stereo unspecified)
22.1

Provide only the value of recorded growth inhibition for `Nc1ncnc(N)c1NC(=O)c1cccc(-c2ccccc2)c1`
34.9

Provide only the value of recorded growth inhibition for CC12CCC(=O)[C@@]1(C)CCCC2=O (stereo partly specified)
-6.9

Provide only the value of recorded growth inhibition for N#CC(c1ccccc1)N(CCc1ccccc1)C(=O)Oc1ccccc1 (stereo unspecified)
-40.3

---

Measurement notes: NCI Yeast Anticancer Drug Screen. Data for the mlh1 rad18 strain (AID 175)
Condition notes: S. cerevisiae mlh1 rad18 strain growth inhibition; at 50.0 µM; hits give high values
The panel holds about 79,000 compounds, 15% with a hit somewhere; the sample as a whole holds those more often.
Observed property: growth inhibition (%)
The figure you give is taken to be in %; do not add the unit.

Provide only the value of recorded growth inhibition for `Cc1cc(NC(=O)CCc2ccc(N3C(N)=NC(N)=NC3(C)C)cc2)ccc1S(=O)(=O)O`
-5.55

Provide only the value of recorded growth inhibition for `CN(C)CCCCl`
-17.3

Provide only the value of recorded growth inhibition for `CCCCOC(=O)C(=O)OCCCC`
17.2

Provide only the value of recorded growth inhibition for `CCCCOC(=O)C1(C(=O)OCCCC)CC1`
3.55

Provide only the value of recorded growth inhibition for Nc1ncnc2c1ccn2C1OC2COP(=O)(O)OC2C1O (configuration not stated)
-15.1

Provide only the value of recorded growth inhibition for CC1CCC(O)(C(C)(C(=O)O)c2ccccc2)CC1 (configuration not stated)
-8.45

Provide only the value of recorded growth inhibition for N#CC1C(=O)NC(=O)C(C#N)C12CCCC2 (configuration not stated)
10.7

---

Please go through the items and note down their growth inhibition.
Measurement notes: NCI Yeast Anticancer Drug Screen. Data for the sgs1 mgt1 strain (AID 161);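 also: 0% = growth of cultures given vehicle only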
Condition notes: S. cerevisiae sgs1 mgt1 strain, at 50.0 µM, hits give high values
About 79,000 compounds went through this panel and 15% of them were active in at least one assay; those are over-represented in the sample as a whole.
The figure you give is taken to be in %; do not add the unit.

Provide only the value of recorded growth inhibition for `CN(C)CSC(=S)NCCNC(=S)SCN(C)C`
24.8

Provide only the value of recorded growth inhibition for O=C(NN1C(=O)CS(=O)(=O)C1c1ccc(C(F)(F)F)cc1)c1ccncc1 (stereo not drawn)
5.8

Provide only the value of recorded growth inhibition for `OCCCNCc1ccncc1`
-14.6

Provide only the value of recorded growth inhibition for CC(=O)NC(C=O)OCC=O (stereo not drawn)
-22.3

Provide only the value of recorded growth inhibition for COC(=O)c1cc(C(C)O)nc2ccccc12 (stereo not drawn)
6.25

Provide only the value of recorded growth inhibition for `N#CCCOCCSCCC#N`
-5.95

Provide only the value of recorded growth inhibition for Br[C@H]1CC2CCC1C2 (stereo partly drawn)
2.9

Provide only the value of recorded growth inhibition for `CCOC(CN=Cc1cccc2ccccc12)OCC`
-11.8

Provide only the value of recorded growth inhibition for O=S=C1SC2CCCCC2S1 (stereo not drawn)
-5.4

Provide only the value of recorded growth inhibition for CS(=O)(=O)OCC1CCCCCCCCCCC12SCCCS2 (stereo not drawn)
-3.25

Provide only the value of recorded growth inhibition for `CC(C)(Oc1ccc2c(=O)cc(-c3ccc(Cl)cc3)oc2c1)C(=O)Nc1c(Cl)cccc1Cl`
6.45

Provide only the value of recorded growth inhibition for `COc1ccc(/C=C2\N=C(c3ccccc3)N(Nc3nnc(NN4C(=O)/C(=C/c5ccc(OC)cc5)N=C4c4ccccc4)c4ccccc34)C2=O)cc1`
1.65

Provide only the value of recorded growth inhibition for `O=C(c1ccc(F)cc1)c1ccc([N+](=O)[O-])cc1`
-1.7
